molecular target: recombinant human GAA (acid alpha-glucosidase) (Homo sapiens, UniProt P10253); experiment: Acid alpha-glucosidase (GAA) assay (4-methylumbelliferyl-alpha-D-pyranoside substrate, fluorescence)
Label fulfilled when IC50 is strictly below 200 nM; otherwise label not fulfilled.

CHEMICAL STRING	GROUP LABEL
O=[N+]([O-])c1cc(-c2ncco2)ccc1NCCc1ccc(CCN2C[C@H](O)[C@@H](O)[C@H](O)[C@H]2CO)cc1	fulfilled
COCCCCCN(CCCNc1ccc(N=[N+]=[N-])cc1[N+](=O)[O-])CCCN1C[C@H](O)[C@@H](O)[C@H](O)[C@H]1CO	not fulfilled
OC[C@@H]1[C@@H](O)[C@H](O)[C@@H](O)CN1Cc1ccc(CNc2ccc(C3=COCCO3)cc2)cc1	fulfilled
OC[C@@H]1[C@@H](O)[C@H](O)[C@@H](O)CN1Cc1ccc(CNc2ccc(-c3ccc[nH]3)cc2)cc1	not fulfilled
O=[N+]([O-])c1cc(-c2ccncc2)ccc1NCCc1ccc(CCN2C[C@H](O)[C@@H](O)[C@H](O)[C@H]2CO)cc1	fulfilled
Cc1cc(NCc2cccc(CN3C[C@H](O)[C@@H](O)[C@H](O)[C@H]3CO)c2)cc(N2CCOCC2)c1	not fulfilled
Cc1cc(NCc2ccc(CN3C[C@H](O)[C@@H](O)[C@H](O)[C@H]3CO)cc2)cc(-c2cccnn2)c1	fulfilled

----------
target: recombinant alpha-glucosidase II (murine full-length glucosidase II, alpha and beta subunits, Glu 2) (Mus musculus); construct: made in house; host or cells: HEK-293T cells transduced with BacMam viruses (75% alpha, 25% beta); protein harvested from culture supernatant; assay: Alpha-glucosidase II assay (4-methylumbelliferyl-alpha-D-pyranoside substrate, fluorescence); format: biochemical; conditions: Glucosidase 2; read-out: Glu2 IC50
Sequence (O08795 15-521): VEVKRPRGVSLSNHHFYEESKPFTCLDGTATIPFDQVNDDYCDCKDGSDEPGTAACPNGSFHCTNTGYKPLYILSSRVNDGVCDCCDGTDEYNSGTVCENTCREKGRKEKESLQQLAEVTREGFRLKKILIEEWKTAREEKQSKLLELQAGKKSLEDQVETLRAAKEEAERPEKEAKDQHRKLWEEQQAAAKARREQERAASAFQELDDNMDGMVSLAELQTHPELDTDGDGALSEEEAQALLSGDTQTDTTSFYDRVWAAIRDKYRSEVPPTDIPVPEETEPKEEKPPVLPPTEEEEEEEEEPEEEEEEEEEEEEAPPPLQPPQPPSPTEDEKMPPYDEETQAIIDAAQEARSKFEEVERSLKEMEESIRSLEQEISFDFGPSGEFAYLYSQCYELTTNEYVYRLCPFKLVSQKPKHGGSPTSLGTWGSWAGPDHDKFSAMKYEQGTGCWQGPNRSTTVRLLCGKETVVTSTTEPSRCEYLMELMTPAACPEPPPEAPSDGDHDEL
Sequence (Q8BHN3 33-944): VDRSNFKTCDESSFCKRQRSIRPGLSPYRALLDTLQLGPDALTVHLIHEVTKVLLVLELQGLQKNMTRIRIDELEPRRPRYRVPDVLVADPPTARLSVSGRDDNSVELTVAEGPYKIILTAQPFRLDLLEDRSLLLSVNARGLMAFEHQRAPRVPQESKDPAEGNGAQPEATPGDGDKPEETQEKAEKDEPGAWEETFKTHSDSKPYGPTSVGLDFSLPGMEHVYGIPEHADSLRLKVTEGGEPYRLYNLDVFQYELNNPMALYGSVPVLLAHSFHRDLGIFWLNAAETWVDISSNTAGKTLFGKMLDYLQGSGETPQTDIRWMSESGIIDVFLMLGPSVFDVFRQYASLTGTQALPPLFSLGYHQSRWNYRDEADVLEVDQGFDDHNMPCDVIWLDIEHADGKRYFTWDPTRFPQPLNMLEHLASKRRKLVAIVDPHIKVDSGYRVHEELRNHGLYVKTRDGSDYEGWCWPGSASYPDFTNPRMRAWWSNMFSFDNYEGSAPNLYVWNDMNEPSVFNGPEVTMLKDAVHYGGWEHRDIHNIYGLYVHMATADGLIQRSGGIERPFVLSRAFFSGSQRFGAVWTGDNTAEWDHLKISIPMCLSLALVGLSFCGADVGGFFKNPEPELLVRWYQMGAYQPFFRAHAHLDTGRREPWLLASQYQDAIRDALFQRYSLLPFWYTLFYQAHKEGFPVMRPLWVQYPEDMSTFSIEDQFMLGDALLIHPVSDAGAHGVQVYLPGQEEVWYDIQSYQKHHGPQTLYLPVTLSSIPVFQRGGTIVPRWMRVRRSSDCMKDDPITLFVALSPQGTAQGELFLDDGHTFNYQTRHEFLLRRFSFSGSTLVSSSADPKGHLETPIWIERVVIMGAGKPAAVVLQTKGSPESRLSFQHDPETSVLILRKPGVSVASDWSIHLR
pIC50: −log10 of the molar value.

COMPOUND	pIC50
O=[N+]([O-])c1cc(-c2cccnn2)ccc1NCc1ccc(CN2C[C@H](O)[C@@H](O)[C@H](O)[C@H]2CO)cc1 [Compound 1101]	7.37
CS(=O)(=O)c1cc(NCc2cccc(CN3C[C@H](O)[C@@H](O)[C@H](O)[C@H]3CO)c2)cc(N2CCOCC2)c1 [Compound 1036]	4.31
CN(C)C(=O)c1cc(NCCCCCCN2C[C@H](O)[C@@H](O)[C@H](O)[C@H]2CO)cc(-c2ncccn2)c1 [Compound 1126]	7.46

----------
biological target: recombinant alpha-glucosidase II (murine full-length glucosidase II, alpha and beta subunits, Glu 2) (Mus musculus); construct: made in house; host or cells: HEK-293T cells transduced with BacMam viruses (75% alpha, 25% beta); protein harvested from culture supernatant; assay: Alpha-glucosidase II assay (4-methylumbelliferyl-alpha-D-pyranoside substrate, fluorescence); assay type: biochemical; settings: Glucosidase 2; read-out: Glu2 IC50
pIC50: −log10 of the molar value.
Param threshold (5) applies to pIC50; output class 1 when value >= threshold, class 0 when value < threshold.

COMPOUND	GROUP LABEL
O=S(=O)(Nc1cc(-c2ncccn2)ccc1NCCCCCCN1C[C@H](O)[C@@H](O)[C@H](O)[C@H]1CO)C1CC1 [Compound 1227]	class 1
OC[C@@H]1[C@@H](O)[C@H](O)[C@@H](O)CN1Cc1cccc(CNc2ccc(-c3ccc[nH]3)cc2)c1 [Compound 1082]	class 1
COC(OC)c1cc(NCCCCCCN2C[C@H](O)[C@@H](O)[C@H](O)[C@H]2CO)cc(-c2ncccn2)c1 [Compound 1124]	class 1
OC[C@@H]1[C@@H](O)[C@H](O)[C@@H](O)CN1Cc1ccc(CNc2ccc(N3CCOCC3)cc2)cc1 [Compound 1068]	class 1
CN(C)Cc1ccc(NCCCCCCN2C[C@H](O)[C@@H](O)[C@H](O)[C@H]2CO)c(F)c1 [Compound 1236]	class 1
OC[C@@H]1[C@@H](O)[C@H](O)[C@@H](O)CN1Cc1cccc(CNc2ccc(N3CCOCC3)cc2)c1 [Compound 1081]	class 0
O=[N+]([O-])c1cc(Br)ccc1NCc1ccc(CN2C[C@H](O)[C@@H](O)[C@H](O)[C@H]2CO)cc1 [Compound 1030]	class 1
OC[C@@H]1[C@@H](O)[C@H](O)[C@@H](O)CN1Cc1ccc(CNc2cc(C3CC3)cc(N3CCOCC3)c2)cc1 [Compound 1010]	class 1
COc1cc(NCCCCCCN2C[C@H](O)[C@@H](O)[C@H](O)[C@H]2CO)cc(C2=CCCCC2)c1 [Compound 1149]	class 1
[N-]=[N+]=Nc1ccc(NCCc2ccccc2CCN2C[C@H](O)[C@@H](O)[C@H](O)[C@H]2CO)c([N+](=O)[O-])c1 [Compound 1249]	class 1
COc1cc(NCCCCCCN2C[C@H](O)[C@@H](O)[C@H](O)[C@H]2CO)cc(-c2cnccn2)c1 [Compound 1197]	class 1
COc1cc(NCCCCCCN2C[C@H](O)[C@@H](O)[C@H](O)[C@H]2CO)cc(-c2ncco2)c1 [Compound 1216]	class 1
[N-]=[N+]=Nc1ccc(NCc2cccc(CN3C[C@H](O)[C@@H](O)[C@H](O)[C@H]3CO)c2)c([N+](=O)[O-])c1 [Compound 1169]	class 0
C[C@@H]1CN(c2ccc(NCc3ccc(CN4C[C@H](O)[C@@H](O)[C@H](O)[C@H]4CO)cc3)c([N+](=O)[O-])c2)C[C@H](C)O1 [Compound 1014]	class 1
OC[C@@H]1[C@@H](O)[C@H](O)[C@@H](O)CN1CCCCCCNc1ccc(-c2cnccn2)cc1Cl [Compound 1198]	class 1
OC[C@@H]1[C@@H](O)[C@H](O)[C@@H](O)CN1Cc1cccc(CNc2ccc(C3=COCCO3)cc2)c1 [Compound 1066]	class 1
Cc1cc(NCc2cccc(CN3C[C@H](O)[C@@H](O)[C@H](O)[C@H]3CO)n2)cc(-c2ccco2)c1 [Compound 1334]	class 0
COc1cc(NCCc2ccc(CCN3C[C@H](O)[C@@H](O)[C@H](O)[C@H]3CO)cc2)cc(-c2cccnn2)c1 [Compound 1157]	class 1
CS(=O)(=O)c1cc(Br)cc(NCc2ccc(CN3C[C@H](O)[C@@H](O)[C@H](O)[C@H]3CO)cc2)c1 [Compound 1025]	class 1
Cc1cc(NCc2cnc(CN3C[C@H](O)[C@@H](O)[C@H](O)[C@H]3CO)cn2)cc(-c2ccc[nH]2)c1 [Compound 1330]	class 0
COc1cc(Cc2ccccc2)cc(NCCCCCCN2C[C@H](O)[C@@H](O)[C@H](O)[C@H]2CO)c1 [Compound 1145]	class 1
O=Cc1cc(-c2ncccn2)ccc1NCCCCCCN1C[C@H](O)[C@@H](O)[C@H](O)[C@H]1CO [Compound 1184]	class 1
OC[C@@H]1[C@@H](O)[C@H](O)[C@@H](O)CN1CCc1ccc(CCNc2cc(Cl)cc(C3=COCCO3)c2)cc1 [Compound 1161]	class 1
COc1ccc(C#CCCCCCN2C[C@H](O)[C@@H](O)[C@H](O)[C@H]2CO)cc1 [Compound 1338]	class 1

----------
Listing of recorded pIC50 by entry.
target: recombinant human GBA (beta-glucocerebrosidase) (Homo sapiens, UniProt P04062); assay: Beta-glucocerebrosidase (GBA, glucosylceramidase) assay (4-methylumbelliferyl-beta-D-pyranoside substrate, fluorescence)
Sequence (P04062 40-536): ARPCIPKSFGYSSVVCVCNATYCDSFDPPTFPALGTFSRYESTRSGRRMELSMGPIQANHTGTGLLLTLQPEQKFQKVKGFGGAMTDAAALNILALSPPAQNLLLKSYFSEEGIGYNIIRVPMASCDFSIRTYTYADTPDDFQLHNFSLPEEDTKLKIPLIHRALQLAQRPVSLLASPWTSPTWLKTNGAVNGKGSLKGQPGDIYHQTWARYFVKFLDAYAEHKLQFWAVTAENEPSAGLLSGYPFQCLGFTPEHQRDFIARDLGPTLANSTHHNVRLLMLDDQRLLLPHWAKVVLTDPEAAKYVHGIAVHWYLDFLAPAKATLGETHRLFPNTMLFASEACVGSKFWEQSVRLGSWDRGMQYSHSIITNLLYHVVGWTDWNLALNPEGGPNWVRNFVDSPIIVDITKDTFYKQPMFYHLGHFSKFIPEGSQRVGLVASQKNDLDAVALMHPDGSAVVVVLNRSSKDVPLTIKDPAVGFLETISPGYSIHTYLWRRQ
pIC50: −log10 of the molar value.

COMPOUND	BOUND OPERATOR	pIC50
[N-]=[N+]=Nc1ccc(NCc2ccc(CN3C[C@H](O)[C@@H](O)[C@H](O)[C@H]3CO)cc2)c([N+](=O)[O-])c1 [Compound 1170]	=	4.52
CS(=O)(=O)c1cc(NCc2ccc(CN3C[C@H](O)[C@@H](O)[C@H](O)[C@H]3CO)cc2)cc(-c2ncccn2)c1 [Compound 1059]	<	4.00
COc1ccc(C#CCCCCCN2C[C@H](O)[C@@H](O)[C@H](O)[C@H]2CO)cc1 [Compound 1338]	=	5.03
COc1cc(NCCCCCCN2C[C@H](O)[C@@H](O)[C@H](O)[C@H]2CO)cc(C2CCCO2)c1 (stereo partly shown) [Compound 1146]	=	5.66
Cc1cc(NCc2ccc(CN3C[C@H](O)[C@@H](O)[C@H](O)[C@H]3CO)cc2)cc(-c2ccc[nH]2)c1 [Compound 1051]	=	4.82
O=[N+]([O-])c1cc(-c2ccccc2)ccc1NCCCCCCN1C[C@H](O)[C@@H](O)[C@H](O)[C@H]1CO [Compound 1138]	=	7.74
CS(=O)(=O)c1cc(Br)cc(NCc2cccc(CN3C[C@H](O)[C@@H](O)[C@H](O)[C@H]3CO)c2)c1 [Compound 1022]	=	4.04
N#Cc1cc(NCc2ccc(CN3C[C@H](O)[C@@H](O)[C@H](O)[C@H]3CO)cc2)cc(C2=COCCO2)c1 [Compound 1062]	=	4.45
Cc1cc(CN2CCOCC2)cc(NCCCCCCN2C[C@H](O)[C@@H](O)[C@H](O)[C@H]2CO)c1 [Compound 1003]	=	5.11
COc1cc(-c2cnccn2)ccc1NCCCCCCN1C[C@H](O)[C@@H](O)[C@H](O)[C@H]1CO [Compound 1199]	=	5.40
COc1cc(NCCCCCCN2C[C@H](O)[C@@H](O)[C@H](O)[C@H]2CO)cc(C2CCCCC2)c1 [Compound 1148]	=	8.70
OC[C@@H]1[C@@H](O)[C@H](O)[C@@H](O)CN1Cc1ccc(CNc2ccc(Br)cc2)cc1 [Compound 1028]	=	4.89
OC[C@@H]1[C@@H](O)[C@H](O)[C@@H](O)CN1CCCCCCNc1ccc(-c2ncccn2)cc1F [Compound 1229]	=	6.02
OC[C@@H]1[C@@H](O)[C@H](O)[C@@H](O)CN1CCc1ccc(CCNc2cc(Cl)cc(-c3ccco3)c2)cc1 [Compound 1159]	=	5.98
Cc1cc(CN2CCOCC2)cc(NCc2ccc(CN3C[C@H](O)[C@@H](O)[C@H](O)[C@H]3CO)cc2)c1 [Compound 1005]	<	4.00
CN(C)Cc1ccc(NCCCCCCN2C[C@H](O)[C@@H](O)[C@H](O)[C@H]2CO)c(C(F)(F)F)c1 [Compound 1259]	=	5.87
CN(Cc1ccc(CN2C[C@H](O)[C@@H](O)[C@H](O)[C@H]2CO)cc1)c1cc(-c2cccnn2)cc(C2CC2)c1 [Compound 1001]	=	4.00
[N-]=[N+]=Nc1ccc(NCCCCCCN2C[C@H](O)[C@@H](O)[C@H](O)[C@H]2CO)c(C(N)=O)c1 [Compound 1296]	=	5.49
Cc1cc(NCc2cccc(CN3C[C@H](O)[C@@H](O)[C@H](O)[C@H]3CO)n2)cc(-c2ccco2)c1 [Compound 1334]	<	4.00
COc1cc(NCCCCCCN2C[C@H](O)[C@@H](O)[C@H](O)[C@H]2CO)cc(-c2ncc[nH]2)c1 [Compound 1219]	=	5.06
COc1ccc(CCCCCCCN2C[C@H](O)[C@@H](O)[C@H](O)[C@H]2CO)cc1 [Compound 1309]	=	5.63
[N-]=[N+]=Nc1ccc(NCCc2ccc(CCN3C[C@H](O)[C@@H](O)[C@H](O)[C@H]3CO)cc2)c([N+](=O)[O-])c1 [Compound 1200]	=	5.84
O=[N+]([O-])c1cc(CN2CCCO2)ccc1NCCc1ccc(CCN2C[C@H](O)[C@@H](O)[C@H](O)[C@H]2CO)cc1 [Compound 1108]	=	5.22
OC[C@@H]1[C@@H](O)[C@H](O)[C@@H](O)CN1CCCCCCNc1ccc(-c2ncco2)cc1Cl [Compound 1203]	=	6.10
N#Cc1cc(Br)cc(NCc2cccc(CN3C[C@H](O)[C@@H](O)[C@H](O)[C@H]3CO)c2)c1 [Compound 1023]	=	4.04
OC[C@@H]1[C@@H](O)[C@H](O)[C@@H](O)CN1CCCCCCNc1cc(Cl)cc(-c2ncco2)c1 [Compound 1211]	=	6.49
COc1ccc(-c2ccc(CCCN3C[C@H](O)[C@@H](O)[C@H](O)[C@H]3CO)cc2)cc1 [Compound 1305]	=	5.10
O=[N+]([O-])c1cc(CCO)ccc1NCCCCCCN1C[C@H](O)[C@@H](O)[C@H](O)[C@H]1CO [Compound 1292]	=	5.79

The measurements presented in this section are drawn from patent US20250197372A1.
